As shown below, each of these variants has a reported normalized RNA/DNA level without ligand (log10) value.
B1: library; a variant is named by its letters at N, in order (parent)
chain: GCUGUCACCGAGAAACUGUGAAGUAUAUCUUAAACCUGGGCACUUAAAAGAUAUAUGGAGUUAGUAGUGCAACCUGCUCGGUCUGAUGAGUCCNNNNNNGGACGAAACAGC

# Variants of: B1
# measurementDescription: normalized RNA/DNA level without ligand (relative to sTRSVctl = 100) (log10 (% of sTRSVctl)); HEK293T; ligand: cyclic di-GMP (c-di-GMP-II aptamer); higher = less ribozyme self-cleavage, higher mRNA level
# statedConditions: reporter: mCherry (pCS4076), ligand present: no
Give your answer as a number; write no unit.

Study these solved cases before continuing.
residueChange | reportedMeasurement
GCAACC | 1.65
AGAACA | 1.53

Next variant, normalized RNA/DNA level without ligand (log10) to be filled in.
[Q] State its normalized RNA/DNA level without ligand (log10) for this variant: UACCGU
[A] 1.59
